SYK kinase (Homo sapiens, UniProt P43405) IC50, compiled from various sources.

COMPOUND | IC50
Cc1ccc(-n2nc(C(C)(C)C)cc2NC(=O)Nc2ccc(OCc3ccnc(Nc4cncc(CC(=O)N(C)C)n4)c3)c3ccccc23)cc1 | > 14600 nM
COc1cc(-c2cc3nccc(C(N)=O)c3o2)cc(OC)c1OC | 300 to 3000 nM
COc1ccc(OC)c(Nc2nc3c(-c4ccccc4-c4ccccc4)nccn3n2)c1 | 300 to 3000 nM
CC1(C)C(=O)Nc2cc(Nc3nc4c(N5CC6(CCNC6)c6cc(Cl)ccc65)nccn4n3)ccc21 (centres unmarked) | 300 to 3000 nM
Cc1cccc(-c2cc3nccc(Nc4ccc5[nH]ccc5c4C)c3o2)c1 | 3000 to 50000 nM
CC1(C)CC(=O)Nc2cc(Nc3nc4c(N5CC(O)CC5c5ccccc5)nccn4n3)ccc21 (centres unmarked) | 300 to 3000 nM
CCc1cnc(Nc2cccc(-c3cnc(N4CCNC(=O)C4C)o3)c2)nc1 (centres unmarked) | 1000 to 10000 nM
COc1cc(-c2cc3nccc(-c4cnc(N)cc4C)c3o2)cc(OC)c1OC | 300 to 3000 nM
c1ccc(-c2ccccc2-c2cncc3nc(Nc4ccc(N5CCOCC5)cc4)nn23)cc1 | 1000 to 5000 nM
CC1(C)CCCc2cc(Nc3nc4c(N5CCC6(CC5)CNC(=O)O6)nccn4n3)ccc21 | < 100 nM
CC1(C)C(=O)Nc2cc(Nc3nc4c(NCCN)nccn4n3)ccc21 | 300 to 3000 nM
CNC(=O)c1cccc(-c2ccnc3cc(-c4cc(OC)c(OC)c(OC)c4)oc23)c1 | < 300 nM
C#Cc1cc(Nc2cc(Oc3ccc(NC(=O)Nc4cc(C(C)(C)C)cc(NS(C)(=O)=O)c4OC)c4ccccc34)ccn2)cc(C(=O)N[C@@H](C)COCCOCCOC)c1 | 1170 nM
CC1(C)C(=O)Nc2cc(Nc3nc4c(N5CCC6(CCNCC6)C5=O)nccn4n3)ccc21 | 100 to 300 nM
COc1ccnc(Nc2cccc(-c3cnc(N4CCNC(=O)C4(C)C)o3)c2)n1 | ≤ 100 nM
CC(C)(O)Cn1cc(Nc2nc3cc(S(C)(=O)=O)ccc3c3cn[nH]c23)cn1 | 10 to 100 nM
CC1(C)CNc2cc(Nc3nc4c(N5CCCCCC5)nccn4n3)ccc21 | < 100 nM
CC(=O)N1C[C@H](O)C[C@@H]1c1nc(-c2csc(CO)c2)c2cnc3[nH]ccc3n12 | 10 to 30 nM
Cn1cc(-c2ccnc3cc(-c4ccc([S+](C)[O-])cc4)oc23)cn1 (centres unmarked) | 300 to 3000 nM
CN1CCC(C)(C)c2cc(-c3nccn4nc(Nc5ccc6c(c5)NC(=O)C6(C)C)nc34)ccc21 | 100 to 300 nM

###

We begin with IC50 values for SYK kinase (Homo sapiens), as collected from the published literature.
READOUT: IC50

MOLECULE | READOUT | RESULT
COc1ccc2nc(Nc3cnn(C4CC4)c3)c3[nH]ncc3c2c1 | IC50 | 10 to 100 nM
CS(=O)(=O)c1ccc2nc(Nc3ccc(C(N)=O)cc3)c3[nH]ncc3c2c1 | IC50 | 10 to 100 nM
COc1cc(-c2cc3nccc(-c4ccc(CN)cc4)c3o2)cc(OC)c1OC | IC50 | < 300 nM
COc1cc(-c2cc3ncc(-c4cn[nH]c4)cc3o2)cc(OC)c1OC | IC50 | 3000 to 50000 nM

###

pIC50: −log10 of the molar value.
The entries below pair molecules with pIC50 values for SYK kinase (Homo sapiens), as found in several publications.
READOUT: pIC50

MOLECULE | READOUT | RESULT
CC(C)Cn1cc(Nc2nc3ccc(S(C)(=O)=O)cc3c3cn[nH]c23)cn1 | pIC50 | 7.00 to 8.00
COc1cc(OC)cc(-c2nccn3nc(Nc4cc(C)cc(C)c4)nc23)c1 | pIC50 | 5.52 to 6.52
CC(C)c1cc(NC(=O)Nc2ccc(Oc3ccnc(Nc4ccc5c(c4)NC(=O)C5)n3)c3ccccc23)n(-c2ccc(OCCN3CCOCC3)cc2)n1 | pIC50 | 8.15
COCCOCCOCCOc1cc(Nc2nccc(Oc3ccc(NC(=O)Nc4cc(NS(C)(=O)=O)cc(C(C)(C)C)c4)c4ccccc34)n2)cc(OC)c1 | pIC50 | 6.26
Cc1ccc(-c2cc3nccnc3c(OC[C@@H]3CN(S(C)(=O)=O)CCO3)n2)cc1 | pIC50 | 6.86
Cc1cccc(Nc2nc3c(-c4ccc(N5CCOCC5)cc4)nccn3n2)c1 | pIC50 | 5.52 to 6.52
O=C(c1ccc(-c2nccn3nc(Nc4ccc(N5CCOCC5)cc4)nc23)cc1)N1CCOCC1 | pIC50 | 4.30 to 5.52
CC(C)Cn1cc(Nc2nc(-c3ncco3)nc3cn[nH]c23)cn1 | pIC50 | 6.00 to 7.00

###

Record: compiled IC50 on SYK kinase (Homo sapiens, UniProt P43405) from multiple reports.

MOLECULE | IC50
c1ccc(Oc2cccc(Nc3nccc(-c4nccs4)n3)c2)nc1 | 0.5 to 2 µM
Cc1ccc(-n2nc(C(C)(C)C)cc2NC(=O)Nc2ccc(OCc3ccnc(Nc4cncc(C#N)n4)c3)c3ccccc23)cc1 | > 16 µM
CC(=O)N1C[C@H](O)C[C@@H]1c1nc(-c2ccc3c(c2)NCCC3)c2cnc3[nH]ccc3n12 | 0.01 to 0.03 µM

###

IC50 for SYK kinase (Homo sapiens, UniProt P43405), merged from several publications.

MOLECULE | IC50
CC1C(=O)NCCN1c1ncc(-c2cc(CN3CCOCC3)cc(Nc3nccc(C#N)n3)c2)o1 (stereo not shown) | ≤ 100 nM
CC1C(=O)NCCN1c1ncc(-c2cccc(Nc3nccc(C(F)(F)F)n3)c2)o1 (stereo not shown) | ≤ 100 nM
CC1(C)C(=O)Nc2cc(Nc3nc4c(N5CC[C@@]6(CCNC6)C5)nccn4n3)ccc21 | < 100 nM
O=C(N1CCN2c3ccc(Nc4nc(-c5ccc6cn[nH]c6c5)cn5ccnc45)cc3OC[C@H]2C1)C(F)(F)F | < 100 nM
CC(C)(C#N)c1ccc(Nc2nc(-c3c(F)cccc3F)nc3cn[nH]c23)cc1 | 100 to 1000 nM
CC1(C)C(=O)Nc2cc(Nc3nc4c(N5CCC6(C5)NC(=O)NC6=O)nccn4n3)ccc21 (stereo not shown) | < 100 nM
Nc1ccccc1COc1cccc(Nc2nccc(-c3nccs3)n2)c1 | < 500 nM

###

A compilation of IC50 values for SYK kinase (Homo sapiens) from the published literature.
READOUT: IC50

MOLECULE | RESULT
CC(C)n1cc(Nc2nc(-c3cccc(NS(C)(=O)=O)c3)nc3cn[nH]c23)cn1 | 10 to 100 nM
COc1cc(-c2cc3nccc(-c4cccc(C(=O)NCc5n[nH]c(=O)[nH]5)c4)c3o2)cc(OC)c1OC | < 300 nM
COc1c(Nc2nc3ccc(S(C)(=O)=O)cc3c3cn[nH]c23)cnn1C1CCN(C(C)(C)C)CC1 | 100 to 1000 nM
c1cc(-c2nc(Nc3cnn(C4CCCOC4)c3)c3[nH]ncc3n2)co1 (stereo not shown) | 10 to 100 nM

###

pIC50: −log10 of the molar value.
Literature survey of pIC50 (system: SYK kinase (Homo sapiens)).
READOUT: pIC50

COMPOUND | RESULT
CCc1ccc(OC)c(-c2cc3nccc(-c4ccc5[nH]cnc5c4)c3o2)c1 | 5.52 to 6.52
COc1cc(Nc2nc(-c3ccno3)nc3cn[nH]c23)ccc1N1CCOCC1 | 6.00 to 7.00
CNC(=O)N1CCO[C@H](COc2nc(-c3ccc(OC)c(OC)c3)cc3nccnc23)C1 | 7.10
CC1(C)C(=O)Nc2cc(Nc3nc4c(N5CCC6(CNC(=O)CO6)C5)nccn4n3)ccc21 (centres unmarked) | 5.52 to 6.52
COc1cc(Nc2nccc(Oc3ccc(NC(=O)Nc4cc(C(C)(C)C)cc(NS(C)(=O)=O)c4OC)c4ccccc34)n2)cc(OCCOCCOCCN2CCOCC2)c1 | 7.12
CS(=O)(=O)c1n[nH]c2nc(Nc3ccc(N4CCNCC4)cc3)nc(NC3CC3)c12 | ≥ 6.70
CC(=O)N1CCC(c2ccc(-c3cc4nccnc4c(O[C@@H]4CCOC4)n3)cc2)CC1 | 7.42
Cc1nc(C2CCN(c3nccn4nc(Nc5ccc6c(c5)NC(=O)C6(C)C)nc34)CC2)[nH]c1C | 6.52 to 7.00
COc1ccc(-c2nc([C@H]3C[C@@H](O)CN3C(C)=O)n3c2cnc2[nH]ccc23)cc1OC | > 8.00
CNC(=O)COc1cccc(-c2ccnc3cc(-c4cc(OC)c(OC)c(OC)c4)oc23)c1 | > 6.52
c1cc(-c2cc3c(ncn4ccnc34)[nH]2)ccn1 | 5.00 to 6.00
